MEASUREMENT DESCRIPTION: cell viability test (MTT) used to calculate the IC80 concentration
Assay type: cell-based
COND: human; HepG2 cells, exposure time 18 h; read-out: Concentration (corresponds to an IC80, MTT)
From the text: HepG2 cells are then individually treated with different compounds with different levels of toxicity.
READOUT TYPE: IC80
// unit must come after the numeric part

Prompt line: Please report the recorded IC80 for CN[C@@H]1C[C@H]2O[C@@](C)([C@@H]1OC)n1c3ccccc3c3c4c(c5c6ccccc6n2c5c31)C(=O)NC4 .
Response line: 50 nM

----------
Below, each entry is listed with its recorded IC80 at 18 h.
MEASUREMENT DESCRIPTION: cell viability test (MTT) used to calculate the IC80 concentration
Format: cell-based
COND: human; HepG2 cells, exposure time 18 h; read-out: Concentration (corresponds to an IC80, MTT)
Where a name gives a salt, the structure may show the parent alone.
The figure you give is taken to be in µg/mL; do not add the unit.

[
  {
    "COMPOUND": "COc1cc([C@@H]2c3cc4c(cc3[C@@H](O[C@@H]3O[C@@H]5CO[C@@H](C)O[C@H]5[C@H](O)[C@H]3O)[C@H]3COC(=O)[C@H]23)OCO4)cc(OC)c1O [Etoposide]",
    "VALUE OBSERVED": 50
  },
  {
    "COMPOUND": "CC[C@H]1OC(=O)[C@H](C)[C@@H](O[C@H]2C[C@@](C)(OC)[C@@H](O)[C@H](C)O2)[C@H](C)[C@@H](O[C@@H]2O[C@H](C)C[C@H](N(C)C)[C@H]2O)[C@](C)(O)C[C@@H](C)C(=O)[C@H](C)[C@@H](O)[C@]1(C)O",
    "VALUE OBSERVED": 2.5
  }
]

Prompt line: So what's the measured IC80 at 18 h for this one? O=C(O)Cc1ccccc1Nc1c(Cl)cccc1Cl
Response line: 50

Prompt line: Also CNC[C@H](O)c1ccc(O)c(O)c1 [Epinephrine Hydrate] ?
Response line: 50

Prompt line: Also check CC(C)(C)NCC(O)c1cc(O)cc(O)c1 (stereo not drawn) [Terbutaline Sulfate]
Response line: 0.2

Prompt line: Can you check C[C@@H]1C[C@@H]([C@H](O)CC2CC(=O)NC(=O)C2)C(=O)[C@@H](C)C1 [Cycloheximide] next?
Response line: 5
